Recorded Ki for molecules tested on Serine/threonine-protein kinase PLK1 (Homo sapiens), drawn from a number of studies.

Some solved cases for reference:
- molecule: "CN1C(=O)C(C)(C)CN(C2CCCC2)c2nc(Nc3ccc4nc[nH]c4c3)ncc21"
  Ki: "10 to 100 nM"
- molecule: "Cc1cccc(Cl)c1NC(=O)N1Cc2c(NC(=O)C3([Si](C)(C)C)CCC3)n[nH]c2C1(C)C"
  Ki: "≥ 5000 nM"
- molecule: "C[C@@H](Nc1ncc(C#N)c(-c2c[nH]c3ncc(C(F)(F)F)cc23)n1)c1ccc(N2CCCN(C)CC2)nc1"
  Ki: "< 3 nM"
- molecule: "CC(C)C[C@H](CO)Nc1ncc(C#N)c(-c2c[nH]c3ncc(C(F)(F)F)cc23)n1"
  Ki: "> 40 nM"
- molecule: "CC(C)Oc1cc(C(=O)NC2CCN(C)CC2)ccc1Nc1ncc2c(n1)N(C1CCCC1)CC(C)(C)C(=O)N2C"
  Ki: "< 10 nM"
- molecule: "CC[C@@H]1c2cncn2-c2cnc(Nc3ccc(C(=O)NC)cc3OC)nc2N1C1CCCC1"
  Ki: "< 1 nM"

Turning now to a further record.
Look up Serine/threonine-protein kinase PLK1 (Homo sapiens) data: Ki of "CC1(C)c2[nH]nc(NC(=O)C3([Si](C)(C)C)CCC3)c2CN1C(=O)Nc1c(Cl)cccc1Cl" , then report it.
≥ 5000 nM

====

pKi: −log10 of the molar value.
Several reports have described pKi for Serine/threonine-protein kinase PLK1 (Homo sapiens); a selection of those results is presented here.

Here are 3 molecules together with their reported answers.
- molecule: "C=C1CC(C(C)Nc2ncc(C#N)c(-c3c[nH]c4ncc(C(F)(F)F)cc34)n2)C1 (stereo not shown)"
  experimental.result: "7.40 to 8.52"
- molecule: "COc1ccc(C(C)Nc2ncc(C#N)c(-c3c[nH]c4ncc(C(F)(F)F)cc34)n2)cn1 (stereo not shown)"
  experimental.result: "> 8.52"
- molecule: "CCC[C@H]1C(=O)N(C)c2cnc(NCc3cnn(Cc4cc(F)c(F)c(F)c4)c3)nc2N1C"
  experimental.result: "< 5.40"

Attention now turns to another entry.
# return pKi of "CN1C(=O)C(C)(C)CN(C2CCCC2)c2nc(Nc3cccc(N4CCCC4=O)c3)ncc21" (system: Serine/threonine-protein kinase PLK1 (Homo sapiens))
7.00 to 8.00

====

pKi for Serine/threonine-protein kinase PLK1 (Homo sapiens) - collated from the literature.
pKi: −log10 of the molar value.

Recall the reported pKi of "C[C@@H](Nc1ncc(C#N)c(-c2c[nH]c3ncc(C(F)(F)F)cc23)n1)C(=O)NCCO" when tested on Serine/threonine-protein kinase PLK1 (Homo sapiens).
7.40 to 8.52

Identify measured pKi obtained with Serine/threonine-protein kinase PLK1 (Homo sapiens) for "COc1cc(C(=O)NC2CN(C(C)C)C2)ccc1Nc1ncc2c(n1)N(C1CCCC1)CC(C)(C)C(=O)N2C" .
> 8.00

Quote Serine/threonine-protein kinase PLK1 (Homo sapiens) pKi for entry "COc1cccc(Cl)c1NC(=O)N1Cc2c(NC(=O)C3([Si](C)(C)C)CCC3)n[nH]c2C1(C)C" .
≤ 5.30

# assay system Serine/threonine-protein kinase PLK1 (Homo sapiens): give pKi of CC(Nc1ncc(C#N)c(-c2c[nH]c3ncc(C(F)(F)F)cc23)n1)C1CN(C(=O)C(C)(C)O)C1 (stereo not shown)
7.40 to 8.52

====

Literature roundup of Serine/threonine-protein kinase PLK1 (Homo sapiens) data, read-out Ki.

- item.smiles: "COc1cc(C(=O)NC2CC2)ccc1Nc1ncc2c(n1)N(C1CCCC1)CC1(CC1)C(=O)N2C"
  Ki: "< 10 nM"
- item.smiles: "CNC(=O)c1ccc(Nc2ncc3c(n2)N(C2CCCC2)CC(C)(C)c2nncn2-3)c(OC)c1"
  Ki: "< 10 nM"

Provide only the value of recorded Ki for "CN1C(=O)Cc2cc(Nc3ncc4c(n3)N(C3CCCC3)CC(C)(C)C(=O)N4C)ccc21"
10 to 100 nM

Item "COc1cc(C(=O)N[C@H]2CCOC2)ccc1Nc1ncc2c(n1)N(C1CCCC1)CC1(CC1)C(=O)N2C" : provide Ki
< 10 nM

Using the record for "CC1(C)c2[nH]nc(NC(=O)C3([Si](C)(C)C)CCC3)c2CN1C(=O)Nc1ccccc1OC(F)F" , state its measured Ki.
≥ 5000 nM

Using known records, supply Ki for "C[C@@H](Nc1ncc(C#N)c(-c2c[nH]c3ncc(C(F)(F)F)cc23)n1)C1CCN(C(=O)C(C)(C)O)CC1"
< 3 nM

Supply recorded Ki for "C[C@@H](Nc1ncc(C#N)c(-c2c[nH]c3ncc(C(F)(F)F)cc23)n1)C1CCN(C(=O)CCN)CC1" here.
< 3 nM

====

For reference, the following Ki results for Serine/threonine-protein kinase PLK1 (Homo sapiens, UniProt P53350) were taken from various sources.

Note Ki for the molecule shown: "COc1cc(C(=O)NCC2CC2)ccc1Nc1ncc2c(n1)N(C1CCCC1)CC(C)(C)C(=O)N2C"
< 10 nM

Give the reported value of Ki for this record: CNC(=O)c1ccc(Nc2ncc3c(n2)N(CC2CC2(F)F)CC(C)(C)C(=O)N3C)c(OC)c1 (stereo not shown)
< 10 nM

Consider the molecule "CCNc1ncc(C#N)c(-c2c[nH]c3ncc(C(F)(F)F)cc23)n1" . State its measured Ki.
> 40 nM

Answer with the recorded Ki for the molecule listed here: "Cc1nc(NCc2cnn(CCc3ccc(F)cc3)c2)nc2c1NC(=O)[C@H](C)N2C"
> 4000 nM

Specify reported Ki for the molecule shown: "Cc1cnc2[nH]cc(-c3nc(N[C@@H](CO)C(C)C)ncc3C#N)c2c1"
3 to 40 nM

// Input: "C[C@@H](Nc1ncc(C#N)c(-c2c[nH]c3ncc(C(F)(F)F)cc23)n1)c1ccc(NS(C)(=O)=O)cc1" . Output its Ki only.
< 3 nM

Name the recorded Ki of the item "Cc1nc(NCc2cnn(Cc3cc(C(F)(F)F)nn3C)c2)nc2c1NC(=O)[C@H](C)N2C" in your answer.
> 4000 nM

Tell me its Ki given "CCN1C(=O)[C@H](C)N(C(C)C)c2nc(NCc3cnn(Cc4cc(F)c(F)c(F)c4)c3)ncc21" as the entry.
> 4000 nM

Answer with the recorded Ki of "COc1cc(C2=NCCN2)ccc1Nc1ncc2c(n1)N(C1CCCC1)CC(C)(C)C(=O)N2C" only.
< 10 nM

====

What follows is literature data on Ki for Serine/threonine-protein kinase PLK1 (Homo sapiens).

Example entries and their recorded answers appear below.
- molecule: "CCOc1ccc(C(C)Nc2ncc(C#N)c(-c3c[nH]c4ncc(C(F)(F)F)cc34)n2)cc1 (stereo not shown)"
  experimental.result: "< 3 nM"
- molecule: "N#Cc1cnc(NCCO)nc1-c1c[nH]c2ncc(C(F)(F)F)cc12"
  experimental.result: "3 to 40 nM"
- molecule: "CC(Nc1ncc(C#N)c(-c2c[nH]c3ncc(C(F)(F)F)cc23)n1)c1ccc(N[C@H]2CCNC2)nc1 (stereo partly shown)"
  experimental.result: "< 3 nM"
- molecule: "COc1ccc(C)c(F)c1NC(=O)N1Cc2c(NC(=O)C3([Si](C)(C)C)CCC3)n[nH]c2C1(C)C"
  experimental.result: "≥ 5000 nM"
- molecule: "C[C@@H](Nc1ncc(C#N)c(-c2c[nH]c3ncc(C(F)(F)F)cc23)n1)C1CCN(C(=O)[C@H](N)CC(N)=O)CC1"
  experimental.result: "< 3 nM"
- molecule: "CN1C(=O)C(C)(C)CN(C2CCCC2)c2nc(Nc3ccc(N4CCOCC4)cc3)ncc21"
  experimental.result: "10 to 100 nM"

Lab note: next molecule to report on.
Specify measured Ki for "Cc1ccc(F)c(NC(=O)N2Cc3c(NC(=O)C4([Si](C)(C)C)CCC4)n[nH]c3C2(C)C)c1F" .
≥ 5000 nM

====

Dear all, I have gathered published Ki values for Serine/threonine-protein kinase PLK1 (Homo sapiens); the list follows.

- compound: "COc1cc(C(=O)NC2CCC2)ccc1Nc1ncc2c(n1)N(C1CCCC1)CC(C)(C)C(=O)N2C"
  tested.system: "Serine/threonine-protein kinase PLK1 (Homo sapiens)"
  experimental.result: "< 10 nM"
- compound: "CNC(=O)C(C)(C)Nc1ncc(C#N)c(-c2c[nH]c3ncc(Cl)cc23)n1"
  tested.system: "Serine/threonine-protein kinase PLK1 (Homo sapiens)"
  experimental.result: "> 40 nM"
- compound: "COc1cc(C(=O)N[C@H]2CC[C@H](OC(C)=O)CC2)ccc1Nc1ncc2c(n1)N(C1CCCC1)CC(C)(C)C(=O)N2C"
  tested.system: "Serine/threonine-protein kinase PLK1 (Homo sapiens)"
  experimental.result: "< 10 nM"

Answer with the recorded Ki for the compound listed here: CC(Nc1ncc(C#N)c(-c2c[nH]c3ncc(C(F)(F)F)cc23)n1)C1CCN(C(=O)CN(C)C)CC1 (centres unmarked)
< 3 nM

Query Ki for "COc1cc(C(=O)NCCC(F)(F)F)ccc1Nc1ncc2c(n1)N(C1CCCC1)CC(C)(C)C(=O)N2C"
< 10 nM

Output Ki of "Cc1nc(NCc2cnn(Cc3ccc(F)cc3)c2)nc2c1N(C)C(=O)C1(CC1)N2C"
> 4000 nM

State its Ki: "COc1cc(C(=O)Nc2cccnc2)ccc1Nc1ncc2c(n1)N(C1CCCC1)CC(C)(C)C(=O)N2C"
< 10 nM
